These measurements were taken from the supplement of paper PMC11061612.

// reported combination Emax for each item listed
- System: KYAE-1 (Esophageal Adenocarcinoma)
- assay: combination Emax (second highest fraction inhibited in the dose matrix, 72 h); higher = more inhibition; extreme values may be limits of the assay

compound	measurement-target	combination Emax
CS(=O)(=O)CCNCc1ccc(-c2ccc3ncnc(Nc4ccc(OCc5cccc(F)c5)c(Cl)c4)c3c2)o1 [Lapatinib] + NC1(c2ccc(-c3nc4ccn5c(=O)[nH]nc5c4cc3-c3ccccc3)cc2)CCC1 [MK-2206] (first compound max 10 µM, 7x7, partner max 10 µM)	KYAE-1 (Esophageal Adenocarcinoma)	0.892
C=CCn1c(=O)c2cnc(Nc3ccc(N4CCN(C)CC4)cc3)nc2n1-c1cccc(C(C)(C)O)n1 [AZD1775] + Nc1ccn([C@@H]2O[C@H](CO)[C@@H](O)C2(F)F)c(=O)n1 [Gemcitabine] (first compound max 1 µM, partner max 0.3 µM)	KYAE-1 (Esophageal Adenocarcinoma)	0.316
CN(C)CCCOc1ccc(-c2ccc3ncc4c(c3c2)n(C2CCOCC2)c(=O)n4C)cn1 [AZD0156] + C[C@@H]1COCCN1C2=NC(=NC(=C2)C3(CC3)[S@](=N)(=O)C)C4=C5C=CNC5=NC=C4 [AZD6738] (first compound max 1 µM, 7x7, partner max 10 µM)	KYAE-1 (Esophageal Adenocarcinoma)	0.0979
CN(CCO)CC[C@H](CSc1ccccc1)Nc1ccc(S(=O)(=O)NC(=O)c2ccc(N3CCC([C@@H](O)c4ccccc4-c4ccc(Cl)cc4)CC3)cc2)cc1S(=O)(=O)C(F)(F)F [AZD4320] + C[C@@H]1COCCN1C2=NC(=NC(=C2)C3(CC3)[S@](=N)(=O)C)C4=C5C=CNC5=NC=C4 [AZD6738] (first compound max 1 µM, 7x7, partner max 10 µM)	KYAE-1 (Esophageal Adenocarcinoma)	0.51
